Assay: amyloid nucleation score (Sup35N fusion, yeast selection) (log enrichment); library NNK1; higher = more nucleation; inactive = no reads after selection;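 also: zero at mode of non-aggregating sequences after 7 days selection at 30°C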
# key: entry, value: amyloid nucleation score
Quick one: just the number, no unit, thanks!

// below: answered sequences
> print(dat)
          sequence.text                  quantity  obs.value
1  FRRLHRYRWDNECLGMQVGS  amyloid nucleation score      -1.48
2  NYYLECWYSCMGNTETSSKG  amyloid nucleation score      0.212
3           SVSGLYQHRSF  amyloid nucleation score      0.184
4  SHIHCFFDDTTNTKKLVWPW  amyloid nucleation score     -0.563
5  MDKCIVSGVVESIFTGGAVI  amyloid nucleation score     -0.361
6       ERRQSEKPGLLPSWS  amyloid nucleation score       0.46
7  NSPKYLKLSCSTLLTALLGR  amyloid nucleation score       1.16
8  GWSLNQVVCCALCSVSRRKR  amyloid nucleation score      0.553

Ask | Entry under review: "NELMSYVWQDKPRKYRYLF" . Reported amyloid nucleation score?
Reply | 1.2

Ask | Given "RSSRAPWRSSCGGMF" , state its recorded amyloid nucleation score.
Reply | -0.494

Ask | Find the recorded amyloid nucleation score belonging to "SFCPSMSNYTCIFPSTNLTY" and report it.
Reply | 7.03

Ask | I have this sequence here, "GSRRDRISLRSQRVCILEKG" , and I need its recorded amyloid nucleation score.
Reply | 1.95

Ask | What value of amyloid nucleation score has been recorded for this entry: "SLATEYCSPFNINRFHLVSI"
Reply | 1.78

Ask | I'd like to know its amyloid nucleation score. The sequence in question is "DVFADGKVIQAYLM"
Reply | -0.117

Ask | Given the sequence "NYTNTMWSSFLDYVVD" , what is its reported amyloid nucleation score?
Reply | 0.272

* * *

Test: amyloid nucleation score (Sup35N fusion, yeast selection) (log enrichment); library NNK2; higher = more nucleation; inactive = no reads after selection
quantity: amyloid nucleation score

> print(dat)
          sequence.text  obs.value
1  IVGVTYFCGSNRIIMMNGVL       5.96

Ask | State the recorded amyloid nucleation score for this entry: "TLLSFRTVDNKIYKVLWVKT"
Reply | 0.418

Ask | Returns the measured amyloid nucleation score for the input sequence. Input: "VVMVVCMV"
Reply | 0.36

Ask | Which amyloid nucleation score is listed for "PGSTRAFIMAVWGAPTEWER" ?
Reply | 2.86

* * *

Experiment: amyloid nucleation score (Sup35N fusion, yeast selection) (log enrichment); library NNK1; higher = more nucleation; inactive = no reads after selection
quantity: amyloid nucleation score
# output: bare number, no unit

> print(dat)
          sequence.text  obs.value
1  LYAYDWLHEGNSSHKSDLVM     -0.791
2  MHGISQPWHKLTMTGIRLAW     -0.463
3           PKRPMWLIQET     -0.571

Ask | Look up amyloid nucleation score: "KTTCIDTIR"
Reply | 0.565

Ask | Name the reported amyloid nucleation score value associated with the sequence "FRCGKGVVMSYELVNSIVGS"
Reply | 0.407

Ask | Reported amyloid nucleation score for "VLEDCNMRGK" : what is it?
Reply | 0.789

* * *

Assay: amyloid nucleation score (Sup35N fusion, yeast selection) (log enrichment); library NNK2; higher = more nucleation; inactive = no reads after selection
Rule: amyloid nucleation score under -0.2 gives 0 (no), otherwise 1 (yes).

> print(dat)
              substance  label.class
1  NYLYHLPYLRTSVLRRLRPV      1 (yes)
2        VDGVKTSIKGRNFI       0 (no)
3  LIGGLVSPISRYEVGWQDAV       0 (no)
4  GFMFGMLTISLRSVMFVARV       0 (no)
5  RVLMHHYTLANLVSLVTNFF      1 (yes)

Ask | Can "ISSMSTLFCLFRGCVGGEYI" be said to have amyloid nucleation score at or above -0.2?
Reply | 0 (no)

Ask | # check: amyloid nucleation score of "LLIREMEHLFVEAKVENLRE" is greater than or equal to -0.2
Reply | 1 (yes)

Ask | # bool: amyloid nucleation score of "HSICSSRNTVIFMSENFRNR" >= -0.2
Reply | 1 (yes)

Ask | Textbook exercise: given the entry "IMGKLHTADYIIVLRLIDRS" , state whether its amyloid nucleation score is greater than or equal to -0.2.
Reply | 0 (no)

Ask | Reported amyloid nucleation score reaches at least -0.2 for "YFSCITILGFGSSNSWRRIM" ?
Reply | 0 (no)

Ask | Please tell me: is the substance "VGAMLKWLT" at or over -0.2 in terms of amyloid nucleation score?
Reply | 1 (yes)

Ask | Check this substance for amyloid nucleation score at or above -0.2: "ISYHSVWDKLFFYVVDFYTS"
Reply | 0 (no)

Ask | Identify whether the reported amyloid nucleation score of the following substance is -0.2 or greater: "AWKAVY"
Reply | 0 (no)

Ask | API: above_or_equal(metric=amyloid nucleation score, cutoff=-0.2) for item "LFLHVSGNAYGNNCRLSGPL"
Reply | 1 (yes)
